Quantity Measured: intrinsic clearance, human liver microsomes (mL/min/kg)

Reference set (2 entries):
Cc1ccc(NC(=O)CN2CCCN(c3ccc(C(F)(F)F)cn3)CC2)c(F)c1 : 141
CCCc1cc(CNC(=O)N2C[C@H]3C[C@@H](C2)c2cccc(=O)n2C3)on1 : 16.6

I. Fc1ccc(NCc2cccc(OCCN3CCOCC3)c2)nc1
II. COc1ccc(CN[C@@H]2CCC[C@H]2Cc2cc(C)no2)cc1OC
Query :: Please compare: I and II . Report which one has the smaller intrinsic clearance, human liver microsomes value. Identify your selection by its label.
Result :: I
(I: 10.2 mL/min/kg, II: 36.9 mL/min/kg)
